Recorded values, source ChEMBL document CHEMBL1136830.

target: Human immunodeficiency virus type 1 integrase (Human immunodeficiency virus 1, UniProt Q7ZJM1); test: In vitro inhibitory activity against HIV-1 integrase enzyme 3'-end processing
Sequence (Q7ZJM1 whole entry): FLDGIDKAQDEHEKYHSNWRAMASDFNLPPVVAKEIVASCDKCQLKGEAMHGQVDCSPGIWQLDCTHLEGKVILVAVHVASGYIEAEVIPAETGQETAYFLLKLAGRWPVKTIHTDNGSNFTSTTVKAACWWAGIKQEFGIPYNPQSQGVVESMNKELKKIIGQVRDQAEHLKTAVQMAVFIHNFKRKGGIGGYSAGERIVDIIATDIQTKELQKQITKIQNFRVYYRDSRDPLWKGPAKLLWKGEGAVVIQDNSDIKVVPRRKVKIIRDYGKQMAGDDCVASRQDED
Starred links: 1 amine or outer side, 2 acyl side, 3 side chain; linkers in the order of their positions; H or OH if unused. Positions of bridges follow the written chain, without caps; N, C: chain ends. Non-standard residues stand in square brackets, D forms with d. Residues, ends and D or L forms follow the SMILES beside them. Chains are numbered I, II in the order given. X1 = O=C([C@@H](CC[*:3])N[*:1])[*:2]
observed.property: IC50 (µM)
# output: bare number, implied unit µM

compound	IC50, µM
NCCCC[C@H](NC(=O)[C@H](CSSC[C@H](NC(=O)[C@@H](N)Cc1c[nH]cn1)C(=O)N[C@@H](CCCCN)C(=O)N[C@@H](Cc1ccccc1)C(=O)N[C@@H](Cc1c[nH]c2ccccc12)C(=O)N[C@@H](Cc1c[nH]c2ccccc12)C(N)=O)NC(=O)[C@@H](N)Cc1c[nH]cn1)C(=O)N[C@@H](Cc1ccccc1)C(=O)N[C@@H](Cc1c[nH]c2ccccc12)C(=O)N[C@@H](Cc1c[nH]c2ccccc12)C(N)=O (I: H-HCKFWW-NH2 / II: H-HCKFWW-NH2; disulfide I:2-II:2)	81

For the next question, use this compound.
Q: What measured IC50 goes with NCCCC[C@H](NC(=O)[C@H](CSCC[C@@H](NC(=O)[C@@H](N)Cc1c[nH]cn1)C(=O)N[C@@H](CCCCN)C(=O)N[C@@H](Cc1ccccc1)C(=O)N[C@@H](Cc1c[nH]c2ccccc12)C(=O)N[C@@H](Cc1c[nH]c2ccccc12)C(N)=O)NC(=O)[C@@H](N)Cc1c[nH]cn1)C(=O)N[C@@H](Cc1ccccc1)C(=O)N[C@@H](Cc1c[nH]c2ccccc12)C(=O)N[C@@H](Cc1c[nH]c2ccccc12)C(N)=O (I: H-H[X1]KFWW-NH2 / II: H-HCKFWW-NH2; thioether I:2-II:2) ?
A: 77

###

biological target: Human immunodeficiency virus type 1 integrase (Human immunodeficiency virus 1); assay: In vitro inhibitory activity against HIV-1 integrase enzyme strand transfer process
Starred links: 1 amine or outer side, 2 acyl side, 3 side chain; linkers in the order of their positions; H or OH if unused. Positions of bridges follow the written chain, without caps; N, C: chain ends. Non-standard residues stand in square brackets, D forms with d. Residues, ends and D or L forms follow the SMILES beside them. Chains are numbered I, II in the order given. X1 = O=C([C@@H](CC[*:3])N[*:1])[*:2]
Recorded pIC50 for the following compounds
Note on pIC50: it is the negative log10 of concentration, concentration in mol/L.

compound	pIC50
NCCCC[C@H](NC(=O)[C@H](CSCC[C@@H](NC(=O)[C@@H](N)Cc1c[nH]cn1)C(=O)N[C@@H](CCCCN)C(=O)N[C@@H](Cc1ccccc1)C(=O)N[C@@H](Cc1c[nH]c2ccccc12)C(=O)N[C@@H](Cc1c[nH]c2ccccc12)C(N)=O)NC(=O)[C@@H](N)Cc1c[nH]cn1)C(=O)N[C@@H](Cc1ccccc1)C(=O)N[C@@H](Cc1c[nH]c2ccccc12)C(=O)N[C@@H](Cc1c[nH]c2ccccc12)C(N)=O (I: H-H[X1]KFWW-NH2 / II: H-HCKFWW-NH2; thioether I:2-II:2)	4.06
NCCCC[C@H](NC(=O)[C@@H](CCSCC[C@@H](NC(=O)[C@@H](N)Cc1c[nH]cn1)C(=O)N[C@@H](CCCCN)C(=O)N[C@@H](Cc1ccccc1)C(=O)N[C@@H](Cc1c[nH]c2ccccc12)C(=O)N[C@@H](Cc1c[nH]c2ccccc12)C(N)=O)NC(=O)[C@@H](N)Cc1c[nH]cn1)C(=O)N[C@@H](Cc1ccccc1)C(=O)N[C@@H](Cc1c[nH]c2ccccc12)C(=O)N[C@@H](Cc1c[nH]c2ccccc12)C(N)=O	4.20
NCCCC[C@H](NC(=O)[C@H](CSC[C@H](NC(=O)[C@@H](N)Cc1c[nH]cn1)C(=O)N[C@@H](CCCCN)C(=O)N[C@@H](Cc1ccccc1)C(=O)N[C@@H](Cc1c[nH]c2ccccc12)C(=O)N[C@@H](Cc1c[nH]c2ccccc12)C(N)=O)NC(=O)[C@@H](N)Cc1c[nH]cn1)C(=O)N[C@@H](Cc1ccccc1)C(=O)N[C@@H](Cc1c[nH]c2ccccc12)C(=O)N[C@@H](Cc1c[nH]c2ccccc12)C(N)=O	4.72

Next up:
Q: Recorded pIC50 for NCCCC[C@H](NC(=O)[C@H](CSSC[C@H](NC(=O)[C@@H](N)Cc1c[nH]cn1)C(=O)N[C@@H](CCCCN)C(=O)N[C@@H](Cc1ccccc1)C(=O)N[C@@H](Cc1c[nH]c2ccccc12)C(=O)N[C@@H](Cc1c[nH]c2ccccc12)C(N)=O)NC(=O)[C@@H](N)Cc1c[nH]cn1)C(=O)N[C@@H](Cc1ccccc1)C(=O)N[C@@H](Cc1c[nH]c2ccccc12)C(=O)N[C@@H](Cc1c[nH]c2ccccc12)C(N)=O (I: H-HCKFWW-NH2 / II: H-HCKFWW-NH2; disulfide I:2-II:2) , please?
A: 4.24
